# target.system: the molecule itself
# method.summary: cross-linking; disulfide cross-linking of single-cysteine MBP-YG box fusions, 5 μM, 20 mM Tris-HCl pH 7.4, 200 mM NaCl, 1 mM EDTA, 10 mM maltose, 160 μM diamide, 1 h, 20°C; non-reducing SDS-PAGE
property.measured: binding result

{"columns": ["protein", "property.measured", "value.measured"],
 "data": [
  ["PPPIRGLTYDETYKKLIMSWYYAGYYTGLYEGLCKSEQRKD (domain or fragment, Schizosaccharomyces pombe, UniProt Q09808 112-152, looked up, S. pombe SMN, residues 112-152; SMN residues fused to the penultimate Thr of E. coli MBP with a Gly-Ser linker; also called A145C mutant with an A141Y substitution; source: E. coli BL21(DE3), purified (amylose resin); not shown: MBP, N-terminal, kept) [MBP-spSMN YG box (112–152) A141Y, A145C]", "binding result", "binds"],
  ["DSLDDADALGSMLISWYMSGYHTGYCMGFRQNQKEGRASHSLN (domain or fragment, human, UniProt Q16637 252-294, looked up, human SMN YG box, residues 252-294; also called hsY277C; source: E. coli BL21(DE3), purified (amylose resin); not shown: MBP, N-terminal, kept) [MBP-hsSMN^252-294(C289A, Y277C)]", "binding result", "binds"],
  ["DSLDDADALGSMLISWYMSGYHTGYYMGFCQNQKEGRASHSLN (domain or fragment, human, UniProt Q16637 252-294, looked up, human SMN YG box, residues 252-294; source: E. coli BL21(DE3), purified (amylose resin); not shown: MBP, N-terminal, kept) [MBP-hsSMN^252-294(C289A, R281C)]", "binding result", "binds"]
]}
